Origin of values: patent US11591326B2

I'd appreciate it if you could supply IC50 values for the items below.
# experimental.system: Human recombinant PRMT5 in complex with human recombinant MEP50 (Homo sapiens (Human), UniProt O14744)
# Sequence (O14744 whole entry): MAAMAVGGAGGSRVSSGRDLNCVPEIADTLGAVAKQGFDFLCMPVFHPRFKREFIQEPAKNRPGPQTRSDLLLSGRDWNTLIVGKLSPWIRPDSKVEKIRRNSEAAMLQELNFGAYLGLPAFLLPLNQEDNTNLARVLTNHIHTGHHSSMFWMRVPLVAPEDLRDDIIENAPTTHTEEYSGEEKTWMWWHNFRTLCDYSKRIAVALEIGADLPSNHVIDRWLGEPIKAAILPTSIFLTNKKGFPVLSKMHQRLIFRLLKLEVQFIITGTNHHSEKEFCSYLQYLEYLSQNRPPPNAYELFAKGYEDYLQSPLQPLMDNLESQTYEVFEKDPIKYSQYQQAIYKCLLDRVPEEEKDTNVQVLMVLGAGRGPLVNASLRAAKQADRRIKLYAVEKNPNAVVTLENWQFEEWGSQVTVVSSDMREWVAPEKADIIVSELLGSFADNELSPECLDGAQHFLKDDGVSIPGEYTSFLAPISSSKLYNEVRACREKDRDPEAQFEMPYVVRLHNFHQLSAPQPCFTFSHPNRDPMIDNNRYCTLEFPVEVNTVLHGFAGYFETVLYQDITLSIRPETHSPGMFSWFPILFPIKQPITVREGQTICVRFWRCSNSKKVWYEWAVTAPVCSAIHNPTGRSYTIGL
# Sequence (Q9BQA1 whole entry partner): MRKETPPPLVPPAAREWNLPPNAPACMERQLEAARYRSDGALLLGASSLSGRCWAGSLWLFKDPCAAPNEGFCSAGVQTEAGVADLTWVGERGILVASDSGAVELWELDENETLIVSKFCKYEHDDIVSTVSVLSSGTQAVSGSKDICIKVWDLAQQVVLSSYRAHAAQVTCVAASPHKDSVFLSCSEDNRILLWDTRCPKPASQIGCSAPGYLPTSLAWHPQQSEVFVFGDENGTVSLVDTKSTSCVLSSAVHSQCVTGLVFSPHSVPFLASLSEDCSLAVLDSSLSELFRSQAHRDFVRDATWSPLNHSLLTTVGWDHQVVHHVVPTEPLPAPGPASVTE
# measurement.description: PRMT5/MEP50 AlphaLISA enzyme inhibitory assay
# study.conditions: PRMT5/MEP50 25 nM, SAM 10 μM, Biotin-H4 peptide 30 nM
Number first, unit second.

Would you mind telling me what IC50 value was observed for O=C1c2cc(Nc3cnn(C4CCOCC4)c3)ccc2CCN1CC(O)CN1CCc2ccccc2C1 (centres unmarked) [Compound 25] ?
10 nM

Would you mind telling me what IC50 value was observed for CC(=O)N1CCC(Nc2ccc3c(c2)C(=O)N(C[C@H](O)CN2CCc4ccccc4C2)CCO3)CC1 [Compound 52a] ?
80 nM

Would you mind telling me what IC50 value was observed for O=c1c2cc(Nc3ccnnc3)ccc2ccn1CC(O)CN1CCc2ccccc2C1 (centres unmarked) [Compound 32] ?
37.2 nM

Would you mind telling me what IC50 value was observed for CN1CCN(CC(O)CN2CCc3ccccc3C2)C(=O)c2cc(Nc3ccnnc3)ccc21 (centres unmarked) [Compound 45] ?
9.6 nM

Would you mind telling me what IC50 value was observed for O=c1c2cc(NC3COC3)ccc2ccn1CC(O)CN1CCc2ccccc2C1 (centres unmarked) [Compound 4] ?
303 nM

Would you mind telling me what IC50 value was observed for CN1CC(Nc2ccc3c(c2)C(=O)N(C[C@@H](O)CN2CCc4ccccc4C2)CC3)C1 [Compound 9] ?
2440 nM

Would you mind telling me what IC50 value was observed for Cn1cc(Nc2ccc3c(c2)C(=O)N(CC(O)CN2CCc4ccccc4C2)CCO3)cn1 (centres unmarked) [Compound 29] ?
39 nM

Would you mind telling me what IC50 value was observed for Cc1nnc(Nc2ccc3c(c2)C(=O)N(C[C@H](O)CN2CCc4ccccc4C2)CCO3)o1 [Compound 42] ?
20.2 nM

Would you mind telling me what IC50 value was observed for CS(=O)(=O)N1CC(Nc2ccc3c(c2)C(=O)N(C[C@@H](O)CN2CCc4ccccc4C2)CC3)C1 [Compound 8] ?
232 nM

Would you mind telling me what IC50 value was observed for O=C1c2cc(NC3COC3)cnc2CCN1CC(O)CN1CCc2ccccc2C1 (centres unmarked) [Compound 16] ?
447 nM

Would you mind telling me what IC50 value was observed for O=C1c2cc(Nc3ccnnc3)ccc2CCN1C[C@@H](O)CN1CCc2ccccc2C1 [Compound 28b] ?
296 nM

Would you mind telling me what IC50 value was observed for O=C1c2cc(Nc3ccnnc3)ncc2OCCN1CC(O)CN1CCc2ccccc2C1 (centres unmarked) [Compound 48] ?
15.8 nM

Would you mind telling me what IC50 value was observed for Cn1nccc1Nc1ccc2c(c1)C(=O)N(C[C@H](O)CN1CCc3ccccc3C1)CCO2 [Compound 41] ?
9.9 nM

Would you mind telling me what IC50 value was observed for CC(=O)N1CCC(Nc2ccc3c(c2F)C(=O)N(CC(O)CN2CCc4ccccc4C2)CCO3)CC1 (centres unmarked) [Compound 46] ?
138 nM

Would you mind telling me what IC50 value was observed for CC(=O)N1CC2C(C1)C2Nc1ccc2c(c1)C(=O)N(CC(O)CN1CCc3ccccc3C1)CCO2 (centres unmarked) [Compound 56] ?
1100 nM

Would you mind telling me what IC50 value was observed for CC(=O)N1CCC(Nc2ccc3c(c2)C(=O)N(C[C@H](O)CN2CCc4ccccc4C2)C2CC3C2)CC1 [Compound 57a] ?
92.5 nM

Would you mind telling me what IC50 value was observed for Cn1cc(Nc2ccc3c(c2)C(=O)N(C[C@@H](O)CN2CCc4ccccc4C2)CC3)cn1 [Compound 12b] ?
235 nM

Would you mind telling me what IC50 value was observed for O=C1c2cc(Nc3ccnnc3)c(F)cc2OCCN1CC(O)CN1CCc2ccccc2C1 (centres unmarked) [Compound 50] ?
7.7 nM

Would you mind telling me what IC50 value was observed for CC(=O)N1CCC(Nc2ccc3c(c2)C(=O)N(C[C@@H](O)CN2CCc4ccccc4C2)C2CC3C2)CC1 [Compound 57b] ?
209 nM

Would you mind telling me what IC50 value was observed for O=C1c2cc(Nc3cncnc3)ccc2OCCN1C[C@H](O)CN1CCc2ccccc2C1 [Compound 36] ?
10.3 nM
